- target_system: T1, cynomolgus TNFR2 on cells (cynomolgus)
- T1 construct: whole, on cells; also called cynomolgus TNFR2 on CD4+ and CD8+ T cells
- assay: flow cytometry on cynomolgus PBMC, antibody at 10 ug/mL, anti-human Fc-PE secondary
binders and their reported % CD4^+ ab^+ Donor 2
Report as a plain number; the unit % is understood.

Field: example entries. Status: answers known.
Asked: Bench note: what % CD4^+ ab^+ Donor 2 did chimeric SBT-002 (antibody, V domains shown, also called chSBT-002) VH: QVTLKESGPGILQPSQTLSLTCSFSGFSLSTSGMGVGWIRQPSGKGLEWLAHIWWDDDKFYNPSLKSQLTISKDTSRNQVFLKLTSVVTADTATYYCARLTGTRYFDYWGQGTTLTVSS VL: DVQMTQSPSSLSASLGGKVTITCKASQDINKFIAWYQHKPGKGPRLLIHYTSTLQPGIPSKFSGSGSGRDYSFSISNLEPEDIATYYCLQYGNLWTFGGGTKLEIT show?
Given back: 14.1

Asked: Next: chimeric SBT-004 (antibody, V domains shown, VH fused to a human IgG1 Fc domain; also called chSBT-004) VH: EVQLQQSGPEVGRPGSSVKISCKASGYTFTDYIMHWVKQSPGQGLEWIGWVDPEYGSTDYAEKFKKKATLTADTSSNTAYIQLSSLTSEDTATYFCARDDGSYSPFDYWGQGVMVTVSS VL: DIQMTQSPPSLSASLGDKVTITCQASQNINKYIAWYQQKPGKAPRLLIRYTSTLESGTPSRFSGSGSGRDYSFSISNVESEDIASYYCLQYVNLLTFGAGTKLEIK
Given back: 7.6

Asked: Next: chimeric SBT-004b (antibody, human IgG1, V domains shown, Same heavy chain as chSBT-004 (human IgG1 Fc domain); also called chSBT-004b) VH: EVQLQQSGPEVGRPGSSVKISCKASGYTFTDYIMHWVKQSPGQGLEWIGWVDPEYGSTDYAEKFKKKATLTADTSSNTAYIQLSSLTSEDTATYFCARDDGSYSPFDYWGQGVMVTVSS VL: NIVMTQSPKSMSMSVGERVTLTCKASENVVTYVSWYQQKPEQSPKLLIYGASNRYTGVPDRFTGSGSATDFTLTISSVQAEDLADYHCGQGYSYPYTFGGGTKLEIK
Given back: 5.5

# ---- query binder ----
Asked: Bench note: what % CD4^+ ab^+ Donor 2 did chimeric SBT-003 (antibody, V domains shown, also called chSBT-003) VH: QIQLVQSGPELKKPGETVKISCKASGYTFTDYSMHWVKQAPGKGLKWMGWINTETGEPTYADDFKGRFAFSSETSTSTAYLQINNLKNDDTTTYFCATYYGSSYVPDYWGQGTSLTVSS VL: DIVMTQSHKFMSTSVGDRVSITCKASQNVGTAVAWYQHKPGQSPKLLIYWTSSRHTGVPDRFTGSGSGTEFTLTISNVQSEDLADYFCHQYSDYPYTFGGGTKLEIK show?
Given back: 1.2

Where do the numbers come from? From patent US20190202925A1.
